# System: EPLC-272H (Other Solid Carcinomas);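 note: after 72 h of two-drug dosing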
# assay method text: Bliss excess, mean over the matrix (fraction); higher = more synergy

>  <molecule>
Cn1cnc2c(F)c(Nc3ccc(Br)cc3Cl)c(C(=O)NOCCO)cc21 [Selumetinib] + CCN(CCO)CCCOc1ccc2c(Nc3cc(CC(=O)Nc4cccc(F)c4)[nH]n3)ncnc2c1 [AZD2811] (first compound max 10 µM, 7x7, partner max 1 µM)

>  <Bliss excess>
0.0426

$$$$
>  <molecule>
Cn1cnc2c(F)c(Nc3ccc(Br)cc3Cl)c(C(=O)NOCCO)cc21 [Selumetinib] + CC(C)n1c(=O)n(C)c2cnc3cc(F)c(-c4ccc(OCCCN5CCCCC5)nc4)cc3c21 [AZD1390] (first compound max 10 µM, 7x7, partner max 0.3 µM)

>  <Bliss excess>
-0.0442

$$$$
>  <molecule>
NC1(C(=O)N[C@@H](CCO)c2ccc(Cl)cc2)CCN(c2ncnc3[nH]ccc23)CC1 [Capivasertib] + CC(=O)c1c(C)c2cnc(Nc3ccc(N4CCNCC4)cn3)nc2n(C2CCCC2)c1=O [Palbociclib] (first compound max 10 µM, 7x7, partner max 10 µM)

>  <Bliss excess>
-0.0065

$$$$
>  <molecule>
COc1cc2ncnc(Nc3ccc(F)c(Cl)c3)c2cc1OCCCN1CCOCC1 [Gefitinib] + CC(C)n1c(=O)n(C)c2cnc3cc(F)c(-c4ccc(OCCCN5CCCCC5)nc4)cc3c21 [AZD1390] (first compound max 10 µM, 7x7, partner max 0.3 µM)

>  <Bliss excess>
-0.0207

$$$$

These measurements were taken from the supplement of paper PMC11061612.
